- subject.of.test: human cloned 5-HT2C receptor, expressed in CHO cells (Homo sapiens)
- Construct: expressed in transfected cells; host or cells: CHO cells
- Sequence (P28335 33-458): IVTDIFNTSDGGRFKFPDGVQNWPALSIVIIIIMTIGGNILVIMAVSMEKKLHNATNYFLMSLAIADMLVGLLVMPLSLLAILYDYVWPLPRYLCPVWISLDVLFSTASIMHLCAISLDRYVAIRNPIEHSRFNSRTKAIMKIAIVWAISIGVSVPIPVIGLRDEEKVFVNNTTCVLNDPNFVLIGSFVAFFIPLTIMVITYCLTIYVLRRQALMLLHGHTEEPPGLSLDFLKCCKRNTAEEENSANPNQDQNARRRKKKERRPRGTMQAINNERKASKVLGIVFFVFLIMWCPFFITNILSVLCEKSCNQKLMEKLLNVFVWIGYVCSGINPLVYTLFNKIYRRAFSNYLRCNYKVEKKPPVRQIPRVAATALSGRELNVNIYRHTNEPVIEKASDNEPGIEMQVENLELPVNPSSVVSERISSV
- assay.procedure: In vitro binding affinity for 5-HT2C receptor ([3H]mesulergine radioligand binding)
- condition.notes: human cloned 5-HT2C receptor, read-out: 5-HT2C pIC50 (converted)
Exam item: assign 1 (yes) to entries whose IC50 is below 5 nM and 0 (no) to entries at or above 5 nM. Note that a value of exactly 5 nM receives 0 (no).

Req: Field: below-cutoff. Rule: recorded IC50 strictly less than 5 nM. Subject: O=C(C1CCN(CC2CC3c4ccccc4Cc4ccc(F)cc4C3O2)CC1)N1CCN(c2cccc(Cl)c2)CC1 (stereo not drawn)
Resp: 0 (no)

Req: Field: below-cutoff. Rule: recorded IC50 strictly less than 5 nM. Subject: COCCOC(=O)NC1CCN(CC2CC3c4ccccc4Cc4ccc(F)cc4C3O2)CC1 (stereo not drawn)
Resp: 0 (no)

Req: Field: below-cutoff. Rule: recorded IC50 strictly less than 5 nM. Subject: OC(COCc1ccco1)CN1CCN(CC2CC3c4ccccc4Cc4ccc(F)cc4C3O2)CC1 (mixture of isomers)
Resp: 1 (yes)

Req: Field: below-cutoff. Rule: recorded IC50 strictly less than 5 nM. Subject: COc1ccccc1OC1CCN(CC2CC3c4ccccc4Cc4ccc(F)cc4C3O2)C1 (mixture of isomers)
Resp: 1 (yes)

Req: Field: below-cutoff. Rule: recorded IC50 strictly less than 5 nM. Subject: O=C(NC1CCCCC1)C1CCN(CC2CC3c4ccccc4Cc4ccc(F)cc4C3O2)CC1 (stereo not drawn)
Resp: 1 (yes)

Req: Field: below-cutoff. Rule: recorded IC50 strictly less than 5 nM. Subject: O=C(O)CC1CN(C[C@H]2C[C@@H]3c4ccccc4Cc4ccc(F)cc4[C@@H]3O2)CCO1 (stereo partly drawn)
Resp: 1 (yes)

Req: Field: below-cutoff. Rule: recorded IC50 strictly less than 5 nM. Subject: Fc1ccc2c(c1)C1OC(CN3CCN(c4nc5ccccc5[nH]4)CC3)CC1c1ccccc1C2 (stereo not drawn)
Resp: 1 (yes)

Req: Field: below-cutoff. Rule: recorded IC50 strictly less than 5 nM. Subject: COc1ccc(NC(=S)N2CCN(CC3CC4c5ccccc5Cc5ccc(F)cc5C4O3)CC2)cc1 (stereo not drawn)
Resp: 0 (no)

Req: Field: below-cutoff. Rule: recorded IC50 strictly less than 5 nM. Subject: COc1cccc(OC2CCN(CC3CC4c5ccccc5Cc5ccc(F)cc5C4O3)C2)c1 (mixture of isomers)
Resp: 1 (yes)

Req: Field: below-cutoff. Rule: recorded IC50 strictly less than 5 nM. Subject: Fc1ccc2c(c1)C1OC(CN3CCN(c4nc5ccccc5o4)CC3)CC1c1ccccc1C2 (stereo not drawn)
Resp: 0 (no)

Req: Field: below-cutoff. Rule: recorded IC50 strictly less than 5 nM. Subject: Fc1ccc2c(c1)[C@@H]1O[C@@H](CN3CCN(c4cccc(C(F)(F)F)n4)CC3)C[C@@H]1c1ccccc1C2
Resp: 0 (no)

Req: Field: below-cutoff. Rule: recorded IC50 strictly less than 5 nM. Subject: CCOC(=O)CC1CCN(CC2CC3c4ccccc4Cc4ccc(F)cc4C3O2)CC1 (stereo not drawn)
Resp: 0 (no)

Req: Field: below-cutoff. Rule: recorded IC50 strictly less than 5 nM. Subject: COc1ccc(OCC2CCN(C[C@H]3C[C@@H]4c5ccccc5Cc5ccc(F)cc5[C@@H]4O3)C2)cc1 (stereo partly drawn)
Resp: 1 (yes)

Req: Field: below-cutoff. Rule: recorded IC50 strictly less than 5 nM. Subject: NCCNC(=S)NC1CCN(CC2CC3c4ccccc4Cc4ccc(F)cc4C3O2)CC1 (stereo not drawn)
Resp: 0 (no)

Req: Field: below-cutoff. Rule: recorded IC50 strictly less than 5 nM. Subject: OC1CCN(C[C@H]2C[C@@H]3c4ccccc4Cc4ccc(F)cc4[C@@H]3O2)C1 (stereo partly drawn)
Resp: 1 (yes)

* * *

- subject.of.test: human Dopamine D2L receptor (Homo sapiens, UniProt P14416)
- Construct: expressed in transfected cells; host or cells: CHO cells
- Sequence (P14416 whole entry): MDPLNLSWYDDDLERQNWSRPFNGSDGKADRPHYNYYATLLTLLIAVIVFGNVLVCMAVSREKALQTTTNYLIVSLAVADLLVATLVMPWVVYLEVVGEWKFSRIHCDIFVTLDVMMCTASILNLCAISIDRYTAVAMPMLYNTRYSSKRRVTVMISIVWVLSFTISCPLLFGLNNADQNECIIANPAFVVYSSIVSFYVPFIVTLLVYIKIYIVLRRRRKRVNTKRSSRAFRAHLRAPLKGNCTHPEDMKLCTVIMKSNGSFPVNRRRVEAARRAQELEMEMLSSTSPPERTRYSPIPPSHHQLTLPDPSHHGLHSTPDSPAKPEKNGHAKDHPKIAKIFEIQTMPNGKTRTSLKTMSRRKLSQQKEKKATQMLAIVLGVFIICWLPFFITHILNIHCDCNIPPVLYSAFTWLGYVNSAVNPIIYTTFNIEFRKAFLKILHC
- assay.procedure: In vitro binding affinity for human D2L receptor ([3H]Spiperone binding)
- condition.notes: human D2L receptor-transfected CHO cell membranes, read-out: D2L pIC50 (converted)
recorded.endpoint: log10 of IC50 (log10 of the value in nM)
In plain terms, each number is the log10 of measured IC50 in nM.

Req: Please indicate log10 of IC50 recorded for O=C(c1ccccc1)N1CCN(CC2CC3c4ccccc4Cc4ccc(F)cc4C3O2)CC1 (stereo not drawn)
Resp: 1.29

Req: Please indicate log10 of IC50 recorded for COc1ccc(NC(=O)CC2CN(C[C@H]3C[C@@H]4c5ccccc5Cc5ccc(F)cc5[C@@H]4O3)CCO2)cc1 (stereo partly drawn)
Resp: 1.75

Req: Please indicate log10 of IC50 recorded for COCCOC(=O)NC1CCN(CC2CC3c4ccccc4Cc4ccc(F)cc4C3O2)CC1 (stereo not drawn)
Resp: 1.01

Req: Please indicate log10 of IC50 recorded for CCOC(=O)CC1CN(C[C@H]2C[C@@H]3c4ccccc4Cc4ccc(F)cc4[C@@H]3O2)CCO1 (stereo partly drawn)
Resp: 1.51

Req: Please indicate log10 of IC50 recorded for Fc1ccc2c(c1)[C@@H]1O[C@@H](CN3CCN(CC4CCCCC4)CC3)C[C@@H]1c1ccccc1C2
Resp: 0.86

Req: Please indicate log10 of IC50 recorded for Cc1cccc(C(=O)NC2CCN(CC3CC4c5ccccc5Cc5ccc(F)cc5C4O3)CC2)c1 (stereo not drawn)
Resp: 0.78

Req: Please indicate log10 of IC50 recorded for O=C(C1CCN(CC2CC3c4ccccc4Cc4ccc(F)cc4C3O2)CC1)N1CCN(c2cccc(Cl)c2)CC1 (stereo not drawn)
Resp: 1.38

Req: Please indicate log10 of IC50 recorded for CN(C)C(=O)CC1CN(C[C@H]2C[C@@H]3c4ccccc4Cc4ccc(F)cc4[C@@H]3O2)CCO1 (stereo partly drawn)
Resp: 1.39

Req: Please indicate log10 of IC50 recorded for C=CS(=O)(=O)N1CCN(CC2CC3c4ccccc4Cc4ccc(F)cc4C3O2)CC1 (stereo not drawn)
Resp: 1.49

Req: Please indicate log10 of IC50 recorded for O=C(O)C1CCN(C[C@H]2C[C@@H]3c4ccccc4Cc4ccc(F)cc4[C@@H]3O2)CC1
Resp: 2.12

Req: Please indicate log10 of IC50 recorded for CCOC(=O)CNC(=O)NC1CCN(CC2CC3c4ccccc4Cc4ccc(F)cc4C3O2)CC1 (stereo not drawn)
Resp: 0.60

Req: Please indicate log10 of IC50 recorded for Fc1cccc(OCC2CCN(CC3CC4c5ccccc5Cc5ccc(F)cc5C4O3)C2)c1 (stereo not drawn)
Resp: 0.59

* * *

Please respond with reported IC50 for every item in the list.
- subject.of.test: NET (norepinephrine transporter) (Rattus norvegicus, UniProt Q63380)
- Construct: Cortex from rat brain was collected and homogenised; from tissue; host or cells: rat brain cortex
- Sequence (Q63380 1-617): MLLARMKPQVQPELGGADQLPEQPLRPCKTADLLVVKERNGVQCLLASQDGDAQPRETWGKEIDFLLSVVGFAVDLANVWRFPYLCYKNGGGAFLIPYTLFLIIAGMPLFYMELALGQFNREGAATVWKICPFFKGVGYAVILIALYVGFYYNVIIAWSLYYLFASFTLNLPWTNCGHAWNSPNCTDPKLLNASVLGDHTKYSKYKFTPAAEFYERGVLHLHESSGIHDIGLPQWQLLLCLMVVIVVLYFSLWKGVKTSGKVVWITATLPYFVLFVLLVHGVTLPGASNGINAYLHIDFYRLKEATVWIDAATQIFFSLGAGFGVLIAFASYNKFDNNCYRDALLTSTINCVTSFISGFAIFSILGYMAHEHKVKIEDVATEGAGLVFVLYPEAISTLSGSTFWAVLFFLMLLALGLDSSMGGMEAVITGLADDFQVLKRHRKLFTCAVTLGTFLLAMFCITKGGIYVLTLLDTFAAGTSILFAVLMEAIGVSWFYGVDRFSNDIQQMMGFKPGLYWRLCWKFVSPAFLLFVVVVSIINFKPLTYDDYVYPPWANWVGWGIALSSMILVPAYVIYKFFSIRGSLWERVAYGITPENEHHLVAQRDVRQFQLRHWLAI
- assay.procedure: In vitro determination of NET reuptake inhibition ([3H]Nixosetine binding, rat brain cortex)
- condition.notes: rat brain cortex, read-out: NET pIC50 (converted)
Report the value in µM with no unit label.

Req: Please indicate IC50 recorded for CN1c2ccccc2C2CC(CN3CCC(O)C3)OC2c2ccccc21 (racemic)
Resp: 2.88

Req: Please indicate IC50 recorded for OC1CCN(C[C@@H]2C[C@@H]3c4ccccc4Sc4ccc(F)cc4[C@H]3O2)C1 (relative stereo)
Resp: 1.7

Req: Please indicate IC50 recorded for O=C(NC1CCN(CC2CC3c4ccccc4Cc4ccc(F)cc4C3O2)CC1)c1ccc(-c2ccccc2)cc1 (stereo not shown)
Resp: 7.94

Req: Please indicate IC50 recorded for O=C(NC1CCN(CC2CC3c4ccccc4Cc4ccc(F)cc4C3O2)CC1)c1ccccc1Br (stereo not shown)
Resp: 10.5

Req: Please indicate IC50 recorded for COC(CNC(=O)N1CCN(CC2CC3c4ccccc4Cc4ccc(F)cc4C3O2)CC1)OC (stereo not shown)
Resp: 4.07

* * *

- subject.of.test: human cloned 5-HT2A receptor, expressed in L929 cells (Homo sapiens)
- Construct: expressed in transfected cells; host or cells: L929 cells
- Sequence (P28223 whole entry): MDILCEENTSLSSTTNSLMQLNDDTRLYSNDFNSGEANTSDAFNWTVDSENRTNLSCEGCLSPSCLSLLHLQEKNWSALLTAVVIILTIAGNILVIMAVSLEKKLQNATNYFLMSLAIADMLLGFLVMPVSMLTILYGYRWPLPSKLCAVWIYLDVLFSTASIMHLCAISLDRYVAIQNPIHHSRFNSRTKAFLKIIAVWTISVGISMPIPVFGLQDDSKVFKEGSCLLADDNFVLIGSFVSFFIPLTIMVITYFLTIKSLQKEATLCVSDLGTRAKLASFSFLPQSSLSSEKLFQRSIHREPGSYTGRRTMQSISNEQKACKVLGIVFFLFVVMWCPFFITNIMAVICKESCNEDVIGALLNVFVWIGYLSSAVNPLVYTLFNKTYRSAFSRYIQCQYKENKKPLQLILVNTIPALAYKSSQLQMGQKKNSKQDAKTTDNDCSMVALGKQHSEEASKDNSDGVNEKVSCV
- assay.procedure: In vitro binding affinity for 5-HT2A receptor ([125I]R91150 radioligand binding)
- condition.notes: human cloned 5-HT2A receptor in L929 cells, [125I]R91150; read-out: 5-HT2A pIC50 (converted)
recorded.endpoint: IC50 (nM)
Report the value in nM with no unit label.

Req: Please indicate IC50 recorded for Fc1ccc2c(c1)C1OC(CN3CCN(C(=S)NCc4ccccc4)CC3)CC1c1ccccc1C2 (centres unmarked)
Resp: 11

Req: Please indicate IC50 recorded for COc1cc2c(cc1OC)CN(C[C@H]1C[C@@H]3c4ccccc4Cc4ccc(F)cc4[C@@H]3O1)CC2
Resp: 1.02

Req: Please indicate IC50 recorded for O=[N+]([O-])c1ccc(CN2CCN(CC3CC4c5ccccc5Cc5ccc(F)cc5C4O3)CC2)cc1 (centres unmarked)
Resp: 20.4

Req: Please indicate IC50 recorded for Fc1ccc2c(c1)C1OC(CN3CCN(Cc4ccsc4)CC3)CC1c1ccccc1C2 (centres unmarked)
Resp: 14.8

Req: Please indicate IC50 recorded for O=C(O)C1CCN(C[C@H]2C[C@@H]3c4ccccc4Cc4ccc(F)cc4[C@@H]3O2)C1 (some centres unmarked)
Resp: 17.4

Req: Please indicate IC50 recorded for O=S(=O)(c1ccccc1)n1cccc1CN1CCN(CC2CC3c4ccccc4Cc4ccc(F)cc4C3O2)CC1 (centres unmarked)
Resp: 67.6

Req: Please indicate IC50 recorded for CCOC(=O)C=C1CCN(CC2CC3c4ccccc4Cc4ccc(F)cc4C3O2)CC1 (centres unmarked)
Resp: 10.7
